- Protocol Notes: Inhibitory activity against acetylcholinesterase in mice at the dose of 4.8 mg/kg via intraperitoneal administration
Readout: IC50 (nM)
Give bare numbers, in nM.

Reported IC50 of "CCCCCCCNC(=O)Oc1ccc2c(c1)[C@]1(C)CCN(C)[C@@H]1N2C" : 148
